Tested on: benzo(alpha)pyrene monooxygenase
Test: Inhibition of benzo(alpha)pyrene monooxygenase in 3-methylcholanthrene-treated Sprague-Dawley rat liver microsomes using [3H]benzo(alpha)pyrene as substrate at 99 uM after 15 mins by liquid scintillation spectrometry
Conditions: liver microsomes from 3-methylcholanthrene-treated rats, probe [3H]benzo(alpha)pyrene
measured.attribute: inhibition at 0.25 h, 99 µM (%)
Supply the numeric figure in %, leaving out any unit text.

Qu. Give reported inhibition at 0.25 h, 99 µM for O=c1cc(-c2ccc([N+](=O)[O-])cc2)oc2c1ccc1ccccc12 (benzo(alpha)pyrene monooxygenase)
Ans. 0

====

For each record, write down the corresponding IC50.
Assay: Inhibition of benzo(alpha)pyrene monooxygenase in 3-methylcholanthrene-treated Sprague-Dawley rat liver microsomes using [3H]benzo(alpha)pyrene as substrate after 15 mins by liquid scintillation spectrometry
Conditions: read-out: I50

Qu. Given the compound O=c1c(-c2ccccc2)coc2c1ccc1ccccc12 , write its reported IC50.
Ans. > 100 µM

Qu. Given the compound c1ccc(-c2cc3ccc4ccccc4c3o2)cc1 , write its reported IC50.
Ans. > 104 µM

Qu. Given the compound O=c1cc(-c2ccccc2)oc2c1cc(Br)c1ccccc12 , write its reported IC50.
Ans. > 97 µM

Qu. Given the compound Nc1cc2c(=O)cc(-c3ccccc3)oc2c2ccccc12 , write its reported IC50.
Ans. 31 µM

Qu. Given the compound O=c1cc(-c2ccc(Cl)cc2)oc2c1ccc1ccccc12 , write its reported IC50.
Ans. 13 µM

Qu. Given the compound O=c1cc(-c2ccc3ccccc3c2)oc2c1ccc1ccccc12 , write its reported IC50.
Ans. 11 µM

Qu. Given the compound COc1ccc(-c2cc(=O)c3ccc4ccccc4c3o2)cc1 , write its reported IC50.
Ans. > 100 µM

Qu. Given the compound COc1cccc(-c2cc(=O)c3ccc4ccccc4c3o2)c1 , write its reported IC50.
Ans. 11 µM

Qu. Given the compound O=c1cc(-c2ccccc2)oc2c1cc([N+](=O)[O-])c1ccccc12 , write its reported IC50.
Ans. > 200 µM

Qu. Given the compound O=c1cc(-c2ccccc2)oc2c1ccc1ccccc12 , write its reported IC50.
Ans. 10 µM

Qu. Given the compound O=c1cc(-c2cccc([N+](=O)[O-])c2)oc2c1ccc1ccccc12 , write its reported IC50.
Ans. > 100 µM

Qu. Given the compound O=c1cc(-c2ccc([N+](=O)[O-])cc2)oc2c1ccc1ccccc12 , write its reported IC50.
Ans. > 99 µM

Qu. Given the compound COc1ccccc1-c1cc(=O)c2ccc3ccccc3c2o1 , write its reported IC50.
Ans. 13 µM

====

Test system: benzo(alpha)pyrene monooxygenase
Experiment: Inhibition of benzo(alpha)pyrene monooxygenase in phenobarbital-treated Sprague-Dawley rat liver microsomes using [3H]benzo(alpha)pyrene as substrate at 99 uM after 15 mins by liquid scintillation spectrometry
Details: liver microsomes from phenobarbital-treated rats, probe [3H]benzo(alpha)pyrene
measured.attribute: inhibition at 0.25 h, 99 µM (%)
Supply the numeric figure in %, leaving out any unit text.

Qu. Given the compound O=c1cc(-c2ccc(Cl)cc2)oc2c1ccc1ccccc12 , write its reported inhibition at 0.25 h, 99 µM.
Ans. 0

====

Experiment: Inhibition of benzo(alpha)pyrene monooxygenase in phenobarbital-treated Sprague-Dawley rat liver microsomes using [3H]benzo(alpha)pyrene as substrate after 15 mins by liquid scintillation spectrometry
Settings: read-out: I50
pIC50: −log10 of the molar value.
measured.attribute: pIC50

Qu. Given the molecule COc1ccc(-c2cc(=O)c3ccc4ccccc4c3o2)cc1 , write its reported pIC50.
Ans. < 4.00

Qu. Given the molecule Nc1cc2c(=O)cc(-c3ccccc3)oc2c2ccccc12 , write its reported pIC50.
Ans. 4.09

Qu. Given the molecule O=c1cc(-c2cccc([N+](=O)[O-])c2)oc2c1ccc1ccccc12 , write its reported pIC50.
Ans. < 4.00

Qu. Given the molecule c1ccc(-c2cc3ccc4ccccc4c3o2)cc1 , write its reported pIC50.
Ans. < 3.98

Qu. Given the molecule O=c1cc(-c2ccc3ccccc3c2)oc2c1ccc1ccccc12 , write its reported pIC50.
Ans. < 4.00

Qu. Given the molecule O=c1cc(-c2ccc(Cl)cc2)oc2c1ccc1ccccc12 , write its reported pIC50.
Ans. < 4.00

Qu. Given the molecule O=c1c(-c2ccccc2)coc2c1ccc1ccccc12 , write its reported pIC50.
Ans. < 4.00

Qu. Given the molecule O=c1cc(-c2ccccc2)oc2c1cc([N+](=O)[O-])c1ccccc12 , write its reported pIC50.
Ans. < 3.70

Qu. Given the molecule O=c1cc(-c2ccccc2)oc2c1cc(Br)c1ccccc12 , write its reported pIC50.
Ans. < 4.01

Qu. Given the molecule COc1ccccc1-c1cc(=O)c2ccc3ccccc3c2o1 , write its reported pIC50.
Ans. < 4.00

Qu. Given the molecule COc1cccc(-c2cc(=O)c3ccc4ccccc4c3o2)c1 , write its reported pIC50.
Ans. < 4.01

Qu. Given the molecule O=c1cc(-c2ccccc2)oc2c1ccc1ccccc12 [ALPHA-NAPHTHOFLAVONE] , write its reported pIC50.
Ans. < 4.00

Qu. Given the molecule O=c1cc(-c2ccc([N+](=O)[O-])cc2)oc2c1ccc1ccccc12 , write its reported pIC50.
Ans. < 4.00
